Assign percent of total Slo1 in complex to each entry below.
Test System: hSlo1EM-eGFP-twin-strep (human Slo1 channel, tags on) (human)
Sequence (Q12791 whole entry): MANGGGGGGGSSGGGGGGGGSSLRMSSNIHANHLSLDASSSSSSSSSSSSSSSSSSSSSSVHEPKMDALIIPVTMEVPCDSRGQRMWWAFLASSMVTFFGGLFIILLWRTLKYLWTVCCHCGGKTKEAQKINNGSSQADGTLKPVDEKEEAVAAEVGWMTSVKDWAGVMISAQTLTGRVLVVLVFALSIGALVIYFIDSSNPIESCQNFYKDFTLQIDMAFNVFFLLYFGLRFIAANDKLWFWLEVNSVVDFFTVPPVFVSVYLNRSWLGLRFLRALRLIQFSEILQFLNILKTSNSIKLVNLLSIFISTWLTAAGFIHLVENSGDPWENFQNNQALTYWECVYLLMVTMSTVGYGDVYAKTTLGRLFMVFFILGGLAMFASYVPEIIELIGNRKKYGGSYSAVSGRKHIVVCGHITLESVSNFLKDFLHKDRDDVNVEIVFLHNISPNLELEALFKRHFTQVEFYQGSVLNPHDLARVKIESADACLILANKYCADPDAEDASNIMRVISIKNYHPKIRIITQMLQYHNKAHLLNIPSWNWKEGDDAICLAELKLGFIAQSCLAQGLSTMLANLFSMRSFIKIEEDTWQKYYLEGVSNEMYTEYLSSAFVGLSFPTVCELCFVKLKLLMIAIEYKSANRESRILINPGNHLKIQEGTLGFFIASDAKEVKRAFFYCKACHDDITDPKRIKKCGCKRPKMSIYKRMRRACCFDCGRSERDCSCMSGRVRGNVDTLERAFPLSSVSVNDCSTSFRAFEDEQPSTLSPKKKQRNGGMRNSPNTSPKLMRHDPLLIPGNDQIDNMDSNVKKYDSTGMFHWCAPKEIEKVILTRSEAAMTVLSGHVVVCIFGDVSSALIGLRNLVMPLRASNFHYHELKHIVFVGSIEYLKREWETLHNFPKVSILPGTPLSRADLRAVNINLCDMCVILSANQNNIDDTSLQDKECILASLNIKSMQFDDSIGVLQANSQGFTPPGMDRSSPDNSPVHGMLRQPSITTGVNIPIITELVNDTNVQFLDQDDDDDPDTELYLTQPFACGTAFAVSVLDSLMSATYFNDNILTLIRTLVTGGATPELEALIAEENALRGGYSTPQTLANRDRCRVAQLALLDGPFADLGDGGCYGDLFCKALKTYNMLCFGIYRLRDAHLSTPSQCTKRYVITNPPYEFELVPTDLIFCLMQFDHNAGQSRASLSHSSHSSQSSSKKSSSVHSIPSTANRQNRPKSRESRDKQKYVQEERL

Query string: Can you share its percent of total Slo1 in complex? I mean this binder: β2 subunit-mCherry-FLAG (natural protein) MFIWTSGRTSSSYRHDEKRNIYQKIRDHDLLDKRKTVTALKAGEDRAILLGLAMMVCSIMMYFLLGITLLRSYMQSVWTEESQCTLLNASITETFNCSFSCGPDCWKLSQYPCLQVYVNLTSSGEKLLLYHTEETIKINQKCSYIPKCGKNFEESMSLVNVVMENFRKYQHFSCYSDPEGNQKSVILTKLYSSNVLFHSLFWPTCMMAGGVAIVAMVKLTQYLSLLCERIQRINR
Result string: > 90%

Query string: # iterate: β4 subunit-mCherry-FLAG (natural protein) MAKLRVAYEYTEAEDKSIRLGLFLIISGVVSLFIFGFCWLSPALQDLQATEANCTVLSVQQIGEVFECTFTCGADCRGTSQYPCVQVYVNNSESNSRALLHSDEHQLLTNPKCSYIPPCKRENQKNLESVMNWQQYWKDEIGSQPFTCYFNQHQRPDDVLLHRTHDEIVLLHCFLWPLVTFVVGVLIVVLTICAKSLAVKAEAMKKRKFS
Result string: > 90%
